The measurements presented in this section are drawn from paper PMC10088926.

system: MCF-7 cells (human breast cancer cell line); assay: In vitro cytotoxicity, viability assay (MTT method), MCF-7; format: cell-based; settings: MCF7, 24 h incubation, triplicate, read-out: IC50 values (mean ± SD) MCF-7
quantity measured: IC50 (µM)

>>> print(df.to_string())
                                   compound  quantity_measured   u  readout_relation  reported_result
0  Cn1c(N)c(NC2=CC(=O)CC(C)(C)C2)c(=O)[nH]c1=S [Compound 3c]               IC50  µM                 >              100
1  O=c1[nH]c(=O)c2n[se]nc2[nH]1 [Compound 5a]               IC50  µM                 =             51.9
2  Cn1c(=S)[nH]c(=O)c2n[se]nc21 [Compound 5b]               IC50  µM                 =             98.1
3  CCn1c(N)c(NC2=CC(=O)CC(C)(C)C2)c(=O)[nH]c1=O [Compound 3d]               IC50  µM                 =             31.4
4  O=c1[nH]cc(F)c(=O)[nH]1 [5-Fluorouracil, reference compound]               IC50  µM                 =             10.1
5   Cn1c(=O)c2n[se]nc2n(C)c1=O [Compound 7]               IC50  µM                 >              100
6  CCn1c(=O)[nH]c(=O)c2n[se]nc21 [Compound 5c]               IC50  µM                 =             39.7
7  CC1(C)CC(=O)C=C(Nc2c(N)n(Cc3ccccc3Cl)c(=O)[nH]c2=O)C1 [Compound 3b]               IC50  µM                 =             46.1
8  CC1(C)CC(=O)C=C(Nc2c(N)n(Cc3ccccc3)c(=O)[nH]c2=O)C1 [Compound 3e]               IC50  µM                 >              100
9  Cn1c(N)c(NC2=CC(=O)CC(C)(C)C2)c(=O)[nH]c1=O [Compound 3f]               IC50  µM                 >              100

====

tested on: MCF-7 cells (human breast cancer cell line); assay: In vitro cytotoxicity, viability assay (MTT method), MCF-7; type: cell-based; settings: MCF7, 24 h incubation, triplicate, read-out: IC50 values (mean ± SD) MCF-7
quantity measured: IC50 (µM)

>>> df
                                   compound  quantity_measured  readout_relation  reported_result
0  CC1(C)CC(=O)C=C(Nc2c(N)[nH]c(=O)[nH]c2=O)C1 [Compound 3a]               IC50                 =             27.1
1  CN(Cc1cnc2nc(N)nc(N)c2n1)c1ccc(C(=O)N[C@@H](CCC(=O)O)C(=O)O)cc1 [Methotrexate, reference compound]               IC50                 =             29.5
2  Cn1c(=O)[nH]c(=O)c2n[se]nc21 [Compound 5e]               IC50                 >              100
3  O=c1[nH]c(=O)n(Cc2ccccc2)c2n[se]nc12 [Compound 5d]               IC50                 =             29.3

====

biological target: HSP90; assay: In vitro HSP90 enzyme inhibition assay (HSP90 (C-Terminal) Inhibitor Screening Assay Kit); settings: read-out: HSP90 IC50 (mean ± SD)
pIC50: −log10 of the molar value.
quantity measured: pIC50

>>> print(df.to_string())
                                   molecule  target_system  quantity_measured  reported_result
0  CC1(C)CC(=O)C=C(Nc2c(N)[nH]c(=O)[nH]c2=O)C1 [Compound 3a]          HSP90              pIC50             5.75
1  O=c1[nH]c(=O)n(Cc2ccccc2)c2n[se]nc12 [Compound 5d]          HSP90              pIC50             5.11

====

target: Topoisomerase II (Homo sapiens, UniProt P11388); construct: purchased; test: In vitro Topoisomerase II enzyme inhibition assay (plasmid-based kit); assay type: biochemical; conditions: in vitro enzyme assay; read-out: Topoisomerase II IC50 (mean ± SD)
Sequence (P11388 whole entry): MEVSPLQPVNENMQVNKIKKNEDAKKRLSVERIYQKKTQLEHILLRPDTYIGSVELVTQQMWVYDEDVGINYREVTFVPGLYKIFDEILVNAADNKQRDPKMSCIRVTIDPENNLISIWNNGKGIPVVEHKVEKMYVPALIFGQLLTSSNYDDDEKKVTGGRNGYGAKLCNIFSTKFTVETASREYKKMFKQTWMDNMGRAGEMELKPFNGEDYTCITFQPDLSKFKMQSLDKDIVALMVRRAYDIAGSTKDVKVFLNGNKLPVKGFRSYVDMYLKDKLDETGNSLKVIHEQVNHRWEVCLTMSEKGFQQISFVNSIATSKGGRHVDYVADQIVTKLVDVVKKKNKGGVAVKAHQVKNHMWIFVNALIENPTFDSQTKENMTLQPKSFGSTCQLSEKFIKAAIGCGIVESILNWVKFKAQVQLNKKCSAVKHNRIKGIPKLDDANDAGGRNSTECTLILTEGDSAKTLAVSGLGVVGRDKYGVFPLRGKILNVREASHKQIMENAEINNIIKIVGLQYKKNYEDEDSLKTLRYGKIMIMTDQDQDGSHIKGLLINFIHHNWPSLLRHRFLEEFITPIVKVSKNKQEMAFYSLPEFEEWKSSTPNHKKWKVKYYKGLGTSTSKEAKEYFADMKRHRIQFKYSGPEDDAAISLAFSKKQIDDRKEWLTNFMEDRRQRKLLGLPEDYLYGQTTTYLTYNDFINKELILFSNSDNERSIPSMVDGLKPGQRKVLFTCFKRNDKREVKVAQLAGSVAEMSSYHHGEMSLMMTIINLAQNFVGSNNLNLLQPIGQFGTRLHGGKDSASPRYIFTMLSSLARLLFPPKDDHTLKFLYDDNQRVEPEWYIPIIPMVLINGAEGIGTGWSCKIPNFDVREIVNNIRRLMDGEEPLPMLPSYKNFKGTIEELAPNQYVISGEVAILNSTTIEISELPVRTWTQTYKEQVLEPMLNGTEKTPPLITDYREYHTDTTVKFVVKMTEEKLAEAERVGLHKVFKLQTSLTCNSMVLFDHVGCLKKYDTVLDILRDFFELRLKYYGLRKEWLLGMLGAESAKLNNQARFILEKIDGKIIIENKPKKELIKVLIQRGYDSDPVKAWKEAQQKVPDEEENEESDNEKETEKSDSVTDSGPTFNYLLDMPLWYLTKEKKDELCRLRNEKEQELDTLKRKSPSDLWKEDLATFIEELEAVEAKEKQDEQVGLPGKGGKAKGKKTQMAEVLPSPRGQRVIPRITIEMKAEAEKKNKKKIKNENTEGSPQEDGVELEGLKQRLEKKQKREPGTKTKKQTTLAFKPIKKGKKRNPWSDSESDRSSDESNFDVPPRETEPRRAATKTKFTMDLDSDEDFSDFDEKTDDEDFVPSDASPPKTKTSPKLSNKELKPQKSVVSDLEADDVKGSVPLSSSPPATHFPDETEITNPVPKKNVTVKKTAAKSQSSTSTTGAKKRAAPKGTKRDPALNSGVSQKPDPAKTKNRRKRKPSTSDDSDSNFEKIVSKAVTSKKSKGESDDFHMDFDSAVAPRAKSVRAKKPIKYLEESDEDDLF
quantity measured: IC50

                                   compound  reported_result
0  CC1(C)CC(=O)C=C(Nc2c(N)[nH]c(=O)[nH]c2=O)C1 [Compound 3a]          4.48 µM

====

test system: A-549 cells (lung carcinoma); experiment: In vitro cytotoxicity, viability assay (MTT method), A-549; type: cell-based; settings: Homo sapiens, A549, 24 h incubation, triplicate, read-out: IC50 values (mean ± SD) A-549
Threshold-based label: IC50 under 30 µM gives yes (1), IC50 not under 30 µM gives no (0).

>>> print(df.to_string())
                                    molecule      cat
 0              O=c1[nH]c(=O)c2n[se]nc2[nH]1   no (0)
 1  Cn1c(N)c(NC2=CC(=O)CC(C)(C)C2)c(=O)[nH]c1=S   no (0)
 2              Cn1c(=S)[nH]c(=O)c2n[se]nc21   no (0)
 3              Cn1c(=O)[nH]c(=O)c2n[se]nc21   no (0)
 4                Cn1c(=O)c2n[se]nc2n(C)c1=O   no (0)
 5      O=c1[nH]c(=O)n(Cc2ccccc2)c2n[se]nc12  yes (1)
 6  CCn1c(N)c(NC2=CC(=O)CC(C)(C)C2)c(=O)[nH]c1=O   no (0)
 7  CC1(C)CC(=O)C=C(Nc2c(N)n(Cc3ccccc3Cl)c(=O)[nH]c2=O)C1   no (0)
 8  CN(Cc1cnc2nc(N)nc(N)c2n1)c1ccc(C(=O)N[C@@H](CCC(=O)O)C(=O)O)cc1 [Methotrexate, reference compound]   no (0)
 9  O=c1[nH]cc(F)c(=O)[nH]1 [5-Fluorouracil, reference compound]  yes (1)
10  CC1(C)CC(=O)C=C(Nc2c(N)n(Cc3ccccc3)c(=O)[nH]c2=O)C1   no (0)
11             CCn1c(=O)[nH]c(=O)c2n[se]nc21   no (0)
12  Cn1c(N)c(NC2=CC(=O)CC(C)(C)C2)c(=O)[nH]c1=O   no (0)

====

Reported IC50 at 24 h values follow for various compounds
experiment: In vitro cytotoxicity against normal WI-38 cell line; conditions: human
quantity measured: IC50 at 24 h (µM)

compound	u	reported result
CC1(C)CC(=O)C=C(Nc2c(N)[nH]c(=O)[nH]c2=O)C1	µM	80.8
O=c1[nH]c(=O)n(Cc2ccccc2)c2n[se]nc12	µM	54.6
COc1cccc2c1C(=O)c1c(O)c3c(c(O)c1C2=O)C[C@@](O)(C(=O)CO)C[C@@H]3O[C@H]1C[C@H](N)[C@H](O)[C@H](C)O1 [Doxorubicin, reference compound]	µM	19.6

====

quantity measured: melting point

                         chemical_structure  quantity_measured  reported_result
0                Cn1c(=O)c2n[se]nc2n(C)c1=O      melting point    278 to 280 °C
1  Nc1c(N=[Se]=O)c(=O)[nH]c(=O)n1Cc1ccccc1Cl      melting point         > 300 °C
2             CCn1c(=O)[nH]c(=O)c2n[se]nc21      melting point         > 300 °C
3  Cn1c(N)c(NC2=CC(=O)CC(C)(C)C2)c(=O)[nH]c1=O      melting point         > 300 °C
4              Cn1c(=O)[nH]c(=O)c2n[se]nc21      melting point         > 300 °C
5      O=c1[nH]c(=O)n(Cc2ccccc2)c2n[se]nc12      melting point    260 to 261 °C
